Tested on: SF-539 CNS
Assay: NCI-60 one-dose screen, 48 h
Details: 10 µM unless noted
Compounds without any hit were thinned out: in the full panel of roughly 83,000, 20% have a hit. Activity calls are given as the source filed them. The calls were made as follows: active = growth percent below 10; inactive = the rest.
Classes used: active, inactive

{"STRUCTURE_STRING": "Cc1nc(/N=C(\\N)NC(=O)Nc2cccc([N+](=O)[O-])c2)sc1C", "LABEL_CLASS": "inactive"}
{"STRUCTURE_STRING": "CC1=C[C@H]2c3c(c(O)c(O)c4oc(-c5ccccc5)cc(=O)c34)[C@H](c3cc(O)c(O)c4oc(-c5ccccc5)cc(=O)c34)[C@H]2C(C)(C)C1", "LABEL_CLASS": "active"}
{"STRUCTURE_STRING": "COc1ccc(-c2nc3ccc(-c4nc5ccc(N6CCN(C)CC6)cc5[nH]4)cc3[nH]2)cc1OC", "LABEL_CLASS": "inactive"}
{"STRUCTURE_STRING": "COc1ccc(CCNc2nc(SC)nc(-c3cccc([N+](=O)[O-])c3)c2C#N)cc1OC", "LABEL_CLASS": "inactive"}
{"STRUCTURE_STRING": "Cc1cc(C)nc(SC2=C(Nc3ccc(C)c(Cl)c3)C(=O)N(Cc3ccccc3)C2=O)n1", "LABEL_CLASS": "inactive"}

###

Tested on: RXF 393 renal
Test: NCI-60 one-dose screen, 48 h
Conditions: 10 µM unless noted
The panel holds about 83,000 compounds, 20% with a hit somewhere; the sample as a whole holds those more often. Calls of active or inactive are those of the source. How the source made its calls: active means growth percent below 10; inactive means the rest.
Classes used: Y for active, N for inactive

{"STRUCTURE_STRING": "O=C1c2cccc3cccc(c23)C(=O)N1CCCCN1CCN(CCCCOc2ccc(-c3nc4ccc(N5CCOCC5)cc4[nH]3)cc2)CC1", "LABEL_CLASS": "N"}
{"STRUCTURE_STRING": "Cc1[nH]c(-c2cc(N)ccc2Cl)c2c1C(=O)CCCC2", "LABEL_CLASS": "N"}
{"STRUCTURE_STRING": "Cc1cc(N[C@@H]2CCC[C@H](Nc3ccnc4cc(Cl)ccc34)C2)nc(N2CCCCCC2)n1", "LABEL_CLASS": "Y"}
{"STRUCTURE_STRING": "Cc1ccc2c(c1)C(=O)/C(=C/c1cccc(OCC(=O)c3ccc(Cl)cc3)c1)CS2", "LABEL_CLASS": "Y"}
{"STRUCTURE_STRING": "C#CCOc1ccc2ncnc(Nc3cccc(CNC(=O)C=C)c3)c2c1", "LABEL_CLASS": "N"}
{"STRUCTURE_STRING": "Cc1cc(NS(=O)(=O)c2ccc(-c3cnc(C4CC4)o3)cc2)ccc1Cl", "LABEL_CLASS": "Y"}
{"STRUCTURE_STRING": "COc1ccc(-n2nc(C)c3c(Oc4ccc(NC(=O)Nc5c(Cl)cccc5Cl)cc4)ncnc32)cc1", "LABEL_CLASS": "N"}
{"STRUCTURE_STRING": "CCc1nnc(CNc2ccc(Cl)cc2)o1", "LABEL_CLASS": "N"}
{"STRUCTURE_STRING": "Cc1cc(N2CCN(c3ccnc4cc(Cl)ccc34)CC2)nc(N2CCOCC2)n1", "LABEL_CLASS": "N"}
{"STRUCTURE_STRING": "COc1ccc(-c2cc(C(=O)N=Nc3c(O)[nH]c4ccc(Br)cc34)no2)cc1", "LABEL_CLASS": "N"}

###

Entries and their measured growth follow.
Tested on: SF-268 CNS
Experiment: NCI-60 one-dose screen, 48 h (100 = growth as untreated, 0 = no growth, -100 = all killed)
Settings: 10 µM unless noted
Procedure: Cells are grown in 96 well plates and exposed to the test compound for 48 hours. Compounds are tested at a single concentration, which is 10^-5 M for most compounds. The reported endpoint is percent growth (GI% or GIPRCNT), where numbers from 0 - 100% represent growth inhibition, and numbers from -100% - 0 represent cell death. For example, a value of 40 represents 60% growth inhibition. A value of 0 means no net growth occurred over the course of the experiment. […]
About 83,000 compounds went through this panel and 20% of them were active in at least one assay; those are over-represented in the sample as a whole. Activity calls are given as the source filed them. The calls were made as follows: active = growth percent below 10; inactive = the rest.

{"COMPOUND": "C=C1c2nc3ccccc3n2C=C(c2ccc(Cl)cc2)N1Cc1ccc(OC)cc1", "TARGET_OR_TEST_SYSTEM": "SF-268 CNS", "growth": "96.1% (inactive)"}
{"COMPOUND": "NC(N)=N/N=C(/c1ccccc1)c1ccc(F)cc1", "TARGET_OR_TEST_SYSTEM": "SF-268 CNS", "growth": "14.2% (inactive)"}
{"COMPOUND": "COc1nc2c(c(=O)n1C)CN(Cc1ccccc1)C=N2", "TARGET_OR_TEST_SYSTEM": "SF-268 CNS", "growth": "106% (inactive)"}
{"COMPOUND": "CC1=C(O)C(=O)C(C(C#N)(C#N)C(C#N)C#N)C1 (stereo unspecified)", "TARGET_OR_TEST_SYSTEM": "SF-268 CNS", "growth": "84.4% (inactive)"}
{"COMPOUND": "COc1ccc2c(c1)C(=O)/C(=C/c1cccnc1)CC2", "TARGET_OR_TEST_SYSTEM": "SF-268 CNS", "growth": "94.2% (inactive)"}
{"COMPOUND": "c1ccc(-c2cc3n4c(-c5ccccc5)nn(-c5ccccc5)c4cnc-3n2)cc1", "TARGET_OR_TEST_SYSTEM": "SF-268 CNS", "growth": "46.1% (inactive)"}
{"COMPOUND": "Nc1n[nH]c2ccc([C@@H]3Nc4cc5c(cc4[C@H]4C6CCC(C6)[C@@H]34)C(=O)NC5)cc12 (stereo partly specified)", "TARGET_OR_TEST_SYSTEM": "SF-268 CNS", "growth": "22.8% (inactive)"}
{"COMPOUND": "CCN(CC)CCCCNc1c2ccc(Cl)cc2nc2ccc(OC)cc12", "TARGET_OR_TEST_SYSTEM": "SF-268 CNS", "growth": "-23.1% (active)"}
{"COMPOUND": "c1ccc2[nH]c(-c3ccc(Nc4nc(N5CCCC5)nc5[nH]ncc45)cc3)nc2c1", "TARGET_OR_TEST_SYSTEM": "SF-268 CNS", "growth": "-7.79% (active)"}
{"COMPOUND": "O=[N+]([O-])c1ccccc1/C=N\\NC(=S)N/N=C/c1ccccc1[N+](=O)[O-]", "TARGET_OR_TEST_SYSTEM": "SF-268 CNS", "growth": "41% (inactive)"}
{"COMPOUND": "C=C(C)[C@@H]1CC[C@]2(C(N)=O)CC[C@]3(C)[C@H](CC[C@@H]4[C@@]5(C)C/C(=C/c6ccco6)C(=O)C(C)(C)[C@@H]5CC[C@]43C)[C@@H]12", "TARGET_OR_TEST_SYSTEM": "SF-268 CNS", "growth": "90.9% (inactive)"}
{"COMPOUND": "COc1ccc(N=Nc2nccs2)c(O)c1", "TARGET_OR_TEST_SYSTEM": "SF-268 CNS", "growth": "26.4% (inactive)"}
{"COMPOUND": "COc1ccc(SC2c3cc(OC)c(OC)cc3Oc3nc(N)c(C#N)c(N)c32)cc1 (stereo unspecified)", "TARGET_OR_TEST_SYSTEM": "SF-268 CNS", "growth": "-61.8% (active)"}
{"COMPOUND": "CN1CCN(c2ccc(Nc3c4ccccc4nc4ccccc34)cc2)CC1", "TARGET_OR_TEST_SYSTEM": "SF-268 CNS", "growth": "107% (inactive)"}
{"COMPOUND": "CCOc1cc2ncc(C#N)c(Nc3ccc(OCc4cccc(F)c4)c(Cl)c3)c2cc1NC(=O)CC1CCSS1 (stereo unspecified)", "TARGET_OR_TEST_SYSTEM": "SF-268 CNS", "growth": "-22.3% (active)"}
{"COMPOUND": "COc1ccc(-c2nc3ccc(-c4nc5ccc(N6CCN(c7ccccc7)CC6)cc5[nH]4)cc3[nH]2)cc1OC", "TARGET_OR_TEST_SYSTEM": "SF-268 CNS", "growth": "11.4% (inactive)"}
{"COMPOUND": "COc1ccc(S(=O)(=O)N2CCN(C)CC2)cc1NC(=O)c1[nH]c(C)c2c1CCCCC2=O", "TARGET_OR_TEST_SYSTEM": "SF-268 CNS", "growth": "82% (inactive)"}
{"COMPOUND": "FC(F)(F)c1ccc(-c2cn3nc(-c4c[nH]c5ccc(Br)cc45)sc3n2)cc1", "TARGET_OR_TEST_SYSTEM": "SF-268 CNS", "growth": "113% (inactive)"}
{"COMPOUND": "COc1ccc(CCNc2nc(SC)nc(-c3cccc([N+](=O)[O-])c3)c2C#N)cc1OC", "TARGET_OR_TEST_SYSTEM": "SF-268 CNS", "growth": "63.6% (inactive)"}
{"COMPOUND": "Cc1ccc(C2=NN3C(C2)c2cc(Br)ccc2OC32CCN(Cc3ccccc3)CC2)o1 (stereo unspecified)", "TARGET_OR_TEST_SYSTEM": "SF-268 CNS", "growth": "84.4% (inactive)"}
{"COMPOUND": "CSc1nc(Nc2cccc(NC(=O)CCl)c2)c(C#N)c(-c2cccc([N+](=O)[O-])c2)n1", "TARGET_OR_TEST_SYSTEM": "SF-268 CNS", "growth": "34% (inactive)"}
{"COMPOUND": "Cc1ccc2c(C(C[N+](=O)[O-])c3ccccc3F)c(-c3ccccc3)[nH]c2c1 (stereo unspecified)", "TARGET_OR_TEST_SYSTEM": "SF-268 CNS", "growth": "46.7% (inactive)"}
{"COMPOUND": "Cc1ccc2c(C(C[N+](=O)[O-])c3ccco3)c(-c3ccccc3)[nH]c2c1 (stereo unspecified)", "TARGET_OR_TEST_SYSTEM": "SF-268 CNS", "growth": "37.8% (inactive)"}
{"COMPOUND": "COc1ccc(C2Nc3c(c(C(C)(C)C)nn3-c3ccccc3)C(=O)CS2)cc1 (stereo unspecified)", "TARGET_OR_TEST_SYSTEM": "SF-268 CNS", "growth": "98% (inactive)"}
{"COMPOUND": "Cc1ccc(/C=C2\\SC(=S)N(CC(=O)NCCCN3CCOCC3)C2=O)cc1", "TARGET_OR_TEST_SYSTEM": "SF-268 CNS", "growth": "96.5% (inactive)"}
{"COMPOUND": "COc1cc2nc(N3CCCC3)nc(Nc3ccccc3)c2cc1OC", "TARGET_OR_TEST_SYSTEM": "SF-268 CNS", "growth": "-0.197% (active)"}
{"COMPOUND": "FC(F)(F)Oc1ccc2nc3nc4ccc[nH]c4cc3c2c1", "TARGET_OR_TEST_SYSTEM": "SF-268 CNS", "growth": "82.3% (inactive)"}
{"COMPOUND": "NC(=O)c1cc(I)ccc1NC(=O)/C=C/c1ccccc1Cl", "TARGET_OR_TEST_SYSTEM": "SF-268 CNS", "growth": "36.8% (inactive)"}
{"COMPOUND": "O=C(COc1cccc(/C=C2\\CSc3ccccc3C2=O)c1)Nc1nccs1", "TARGET_OR_TEST_SYSTEM": "SF-268 CNS", "growth": "43.5% (inactive)"}
{"COMPOUND": "COc1cc2nnc3c4cccnc4[nH]c3c2cc1OC", "TARGET_OR_TEST_SYSTEM": "SF-268 CNS", "growth": "19.4% (inactive)"}
{"COMPOUND": "C=CC(=O)Nc1cccc(-c2nc(SC)nc(NCCN3CCOCC3)c2C#N)c1", "TARGET_OR_TEST_SYSTEM": "SF-268 CNS", "growth": "83.8% (inactive)"}
{"COMPOUND": "COc1ccc(/C=C/c2nc(-c3n[nH]c(=O)n3-c3ccccc3)c3ccccc3n2)cc1", "TARGET_OR_TEST_SYSTEM": "SF-268 CNS", "growth": "97.3% (inactive)"}
{"COMPOUND": "CCCSc1ccc2nc(NC(=O)OC)[nH]c2c1", "TARGET_OR_TEST_SYSTEM": "SF-268 CNS", "growth": "44.8% (inactive)"}
{"COMPOUND": "Cc1cc(C)nc(SC2=C(Nc3ccc(O)cc3)C(=O)N(Cc3ccccc3)C2=O)n1", "TARGET_OR_TEST_SYSTEM": "SF-268 CNS", "growth": "74.6% [40 µM] (inactive)"}
{"COMPOUND": "COc1ccc(O)c(N=Nc2nccs2)c1", "TARGET_OR_TEST_SYSTEM": "SF-268 CNS", "growth": "67.9% (inactive)"}
{"COMPOUND": "O=Nc1c(O)c(Cl)cc2ccccc12", "TARGET_OR_TEST_SYSTEM": "SF-268 CNS", "growth": "82.5% (inactive)"}
{"COMPOUND": "c1ccc(CCNc2ncnc3[nH]ncc23)cc1", "TARGET_OR_TEST_SYSTEM": "SF-268 CNS", "growth": "109% (inactive)"}
{"COMPOUND": "COc1ccc(/C=C/c2nc3ccccc3nc2/C=C/c2ccc(OC)cc2)cc1", "TARGET_OR_TEST_SYSTEM": "SF-268 CNS", "growth": "99.5% (inactive)"}
{"COMPOUND": "Cc1cc(N2CCCCC2)nc(NC2CCCC(Nc3ccnc4cc(Cl)ccc34)C2)n1 (stereo unspecified)", "TARGET_OR_TEST_SYSTEM": "SF-268 CNS", "growth": "-59.6% (active)"}
{"COMPOUND": "COc1ccc(-c2nc3cc(C(=O)Nc4cc(OC)c(OC)c(OC)c4)ccc3n2C2CCCCC2)cc1", "TARGET_OR_TEST_SYSTEM": "SF-268 CNS", "growth": "100% (inactive)"}
{"COMPOUND": "O=C(N/N=C/c1ccccc1O)c1ccccc1Nc1ccnc(C(F)(F)F)c1", "TARGET_OR_TEST_SYSTEM": "SF-268 CNS", "growth": "14.6% (inactive)"}
